Biological target: T1, human ferroportin (SLC40A1) fused in frame with GFP, stably expressed in HEK293 cells (human, UniProt Q9NP59 1-571)
T1 sequence (looked up): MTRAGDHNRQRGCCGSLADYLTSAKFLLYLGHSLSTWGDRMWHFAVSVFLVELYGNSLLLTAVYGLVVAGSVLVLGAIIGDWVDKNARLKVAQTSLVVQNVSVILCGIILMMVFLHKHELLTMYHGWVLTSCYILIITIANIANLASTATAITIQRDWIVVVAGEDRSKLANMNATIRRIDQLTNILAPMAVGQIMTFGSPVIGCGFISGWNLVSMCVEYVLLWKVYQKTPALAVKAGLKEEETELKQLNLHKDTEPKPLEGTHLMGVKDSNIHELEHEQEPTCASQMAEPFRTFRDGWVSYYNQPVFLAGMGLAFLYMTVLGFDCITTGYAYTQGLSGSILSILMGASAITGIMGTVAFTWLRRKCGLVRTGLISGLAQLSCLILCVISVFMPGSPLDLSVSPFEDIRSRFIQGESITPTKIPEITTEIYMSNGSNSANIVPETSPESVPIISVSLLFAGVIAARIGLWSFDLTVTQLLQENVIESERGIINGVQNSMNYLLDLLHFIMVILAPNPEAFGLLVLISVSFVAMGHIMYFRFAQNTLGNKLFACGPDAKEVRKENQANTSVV
Test: cell-based or functional assay
Bridge positions count the residues as written; N and C are the ends. * marks the point of attachment. Isovaleryl = CC(C)CC(=O)*
Record form. Attribute: In Vitro Activity EC50. Fill in for each entry.
Answers are plain numbers, in nM.

Known In Vitro Activity EC50 results, listed for orientation:
- binder: "Isovaleryl-DTHFPCIKFEPRSKGCK-NH2 (not fully specified (bridges); cysteine pairing not given here) [Compound 184]"
  In Vitro Activity EC50 / nM: 16
- binder: "DTHFPCIKFKPRSKGWVCK (not fully specified; N-terminal isovaleric acid; K10(PEG8); C-terminal NH2) [Compound 150]"
  In Vitro Activity EC50 / nM: 7
- binder: "Isovaleryl-DTHFPCIQFGPRSKGWVCK-NH2 (not fully specified (bridges); cysteine pairing not given here) [Compound 10]"
  In Vitro Activity EC50 / nM: 35
- binder: "Isovaleryl-DTHFPCIIFGPRSRGWVCK-NH2 (disulfide 6-18 (inferred)) [Compound 3]"
  In Vitro Activity EC50 / nM: 15

Please turn your attention to the following entry.
Task: Could you share which In Vitro Activity EC50 value was measured for Isovaleryl-DTHFPCIIFEPRSKGWVCK-NH2 (not fully specified (bridges); cysteine pairing not given here) [Compound 105] ?
Output: 10
